TARGET OR TEST SYSTEM: UniProt P36888
Sequence (P36888 27-993): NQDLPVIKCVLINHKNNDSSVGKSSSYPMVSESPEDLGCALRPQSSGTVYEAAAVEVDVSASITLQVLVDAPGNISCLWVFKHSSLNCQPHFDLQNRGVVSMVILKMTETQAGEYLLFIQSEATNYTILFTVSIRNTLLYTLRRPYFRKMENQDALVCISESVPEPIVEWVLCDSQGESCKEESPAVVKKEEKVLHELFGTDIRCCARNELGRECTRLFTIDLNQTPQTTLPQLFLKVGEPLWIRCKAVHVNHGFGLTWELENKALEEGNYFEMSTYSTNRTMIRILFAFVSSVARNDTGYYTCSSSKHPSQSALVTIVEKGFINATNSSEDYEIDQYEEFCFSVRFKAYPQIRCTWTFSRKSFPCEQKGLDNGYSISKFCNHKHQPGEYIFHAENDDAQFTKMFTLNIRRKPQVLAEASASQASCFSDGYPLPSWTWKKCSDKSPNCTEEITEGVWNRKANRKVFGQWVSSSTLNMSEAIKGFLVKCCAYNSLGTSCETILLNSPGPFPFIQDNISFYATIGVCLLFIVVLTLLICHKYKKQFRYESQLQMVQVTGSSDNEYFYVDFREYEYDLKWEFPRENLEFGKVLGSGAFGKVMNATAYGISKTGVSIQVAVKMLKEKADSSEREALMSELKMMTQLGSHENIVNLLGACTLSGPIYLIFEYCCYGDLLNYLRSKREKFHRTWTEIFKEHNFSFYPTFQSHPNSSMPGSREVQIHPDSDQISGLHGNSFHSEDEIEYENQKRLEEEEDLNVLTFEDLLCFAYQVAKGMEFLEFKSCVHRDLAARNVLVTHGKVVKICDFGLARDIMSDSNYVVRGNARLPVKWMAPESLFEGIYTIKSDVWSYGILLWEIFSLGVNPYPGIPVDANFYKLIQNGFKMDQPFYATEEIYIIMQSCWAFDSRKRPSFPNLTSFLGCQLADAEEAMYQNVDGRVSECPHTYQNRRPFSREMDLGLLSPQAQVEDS
ASSAY READOUT: IC50 (nM)

MOLECULE SMILES	OBSERVED RESULT
Cc1cnc(Nc2ccc(N3CCC(N(C)CCO)CC3)c(F)c2)nc1-c1cnn(C(C)C)c1	15

###

PROCEDURE DETAILS: PK and tissue distribution after single oral administration in Ba/F3-EPOR-JAK2^V617F tumor-bearing mice
Assay type: in vivo
ASSAY CONDITIONS: BALB/c nude, mouse, spleen and plasma, po, 30 mg/kg, AUC(0-24h) of spleen higher than that of plasma, single oral 30 mg/kg

MOLECULE SMILES	Kp
Cc1cnc(Nc2ccc(N3CCC(N(C)CCO)CC3)c(F)c2)nc1-c1cnn(C(C)C)c1	15.3

###

Tested on: Ba/F3-FLT3-ITD^F691
PROCEDURE DETAILS: MTT assay for cell proliferation
Type: cell-based, Murine
ASSAY CONDITIONS: Mus musculus; Ba/F3-FLT3-ITD^F691; MTT 72 h; read-out: IC50(μM) ± SD, tumor cell proliferation

MOLECULE	VALUE UNIT	IC50
Cc1cnc(Nc2ccc(OCCN3CCCC3)cc2)nc1Nc1cccc(S(=O)(=O)NC(C)(C)C)c1 [Fedratinib, reference compound]	µM	0.74

###

PROCEDURE DETAILS: PK and tissue distribution after single oral administration in Ba/F3-EPOR-JAK2^V617F tumor-bearing mice
Assay type: in vivo
ASSAY CONDITIONS: BALB/c nude, mouse; Plasma; single oral 30 mg/kg

MOLECULE SMILES	Cmax / ng/mL
Cc1cnc(Nc2ccc(N3CCC(N(C)CCO)CC3)c(F)c2)nc1-c1cnn(C(C)C)c1	1030

###

PROCEDURE DETAILS: PK and tissue distribution after repeated oral administration in Ba/F3-EPOR-JAK2^V617F tumor-bearing mice
Format: in vivo
ASSAY CONDITIONS: BALB/c nude, mouse, heart, oral, 30 mg/kg; repeated; 2 h; read-out: FM concentration, Heart

COMPOUND	concentration at 2 h
Cc1cnc(Nc2ccc(N3CCC(N(C)CCO)CC3)c(F)c2)nc1-c1cnn(C(C)C)c1 [FM]	1320 ng/g

###

PROCEDURE DETAILS: PK and tissue distribution after repeated oral administration in Ba/F3-EPOR-JAK2^V617F tumor-bearing mice
Assay type: in vivo
ASSAY CONDITIONS: BALB/c nude, mouse, spleen, oral, 30 mg/kg; repeated; 8 h after the last administration; read-out: FM concentration, Spleen
ASSAY READOUT: concentration at 8 h (ng/g)

MOLECULE SMILES	ASSAY READOUT	OBSERVED RESULT
Cc1cnc(Nc2ccc(N3CCC(N(C)CCO)CC3)c(F)c2)nc1-c1cnn(C(C)C)c1	concentration at 8 h	2150

###

PROCEDURE DETAILS: PK and tissue distribution after single oral administration in Ba/F3-EPOR-JAK2^V617F tumor-bearing mice
Type: in vivo
ASSAY CONDITIONS: BALB/c nude, mouse; spleen; single oral 30 mg/kg

COMPOUND	Cmax / ng/g
Cc1cnc(Nc2ccc(N3CCC(N(C)CCO)CC3)c(F)c2)nc1-c1cnn(C(C)C)c1 [FM]	12000

###

PROCEDURE DETAILS: PK and tissue distribution after single oral administration in Ba/F3-EPOR-JAK2^V617F tumor-bearing mice
Format: in vivo
ASSAY CONDITIONS: BALB/c nude, mouse, spleen; 8 h after single oral 30 mg/kg; converted; read-out: drug concentration in the spleen
ASSAY READOUT: concentration at 8 h

COMPOUND	OBSERVED RESULT
Cc1cnc(Nc2ccc(N3CCC(N(C)CCO)CC3)c(F)c2)nc1-c1cnn(C(C)C)c1 [FM]	~2420 nM

###

PROCEDURE DETAILS: PK and tissue distribution after single oral administration in Ba/F3-EPOR-JAK2^V617F tumor-bearing mice
Type: in vivo
ASSAY CONDITIONS: BALB/c nude, mouse, lung, oral, 30 mg/kg; single; 2 h; read-out: FM concentration, Lung

MOLECULE SMILES	concentration at 2 h, ng/g
Cc1cnc(Nc2ccc(N3CCC(N(C)CCO)CC3)c(F)c2)nc1-c1cnn(C(C)C)c1	3820

###

PROCEDURE DETAILS: PK and tissue distribution after repeated oral administration in Ba/F3-EPOR-JAK2^V617F tumor-bearing mice
Type: in vivo
ASSAY CONDITIONS: BALB/c nude, mouse, spleen, oral, 30 mg/kg; repeated; 4 h; read-out: FM concentration, Spleen

MOLECULE	concentration at 4 h [ng/g]
Cc1cnc(Nc2ccc(N3CCC(N(C)CCO)CC3)c(F)c2)nc1-c1cnn(C(C)C)c1 [FM]	6180

###

PROCEDURE DETAILS: PK and tissue distribution after single oral administration in Ba/F3-EPOR-JAK2^V617F tumor-bearing mice
Type: in vivo
ASSAY CONDITIONS: BALB/c nude, mouse, kidney, oral, 30 mg/kg; single; 4 h; read-out: FM concentration, Kidney
ASSAY READOUT: concentration at 4 h (ng/g)

MOLECULE SMILES	ASSAY READOUT	OBSERVED RESULT
Cc1cnc(Nc2ccc(N3CCC(N(C)CCO)CC3)c(F)c2)nc1-c1cnn(C(C)C)c1	concentration at 4 h	2410

###

PROCEDURE DETAILS: PK and tissue distribution after single oral administration in Ba/F3-EPOR-JAK2^V617F tumor-bearing mice
Assay type: in vivo
ASSAY CONDITIONS: BALB/c nude, mouse, heart, oral, 30 mg/kg; single; 4 h; read-out: FM concentration, Heart

MOLECULE SMILES	concentration at 4 h, ng/g
Cc1cnc(Nc2ccc(N3CCC(N(C)CCO)CC3)c(F)c2)nc1-c1cnn(C(C)C)c1	864

###

Tested on: Ba/F3-JAK2^WT
PROCEDURE DETAILS: MTT assay for cell proliferation
Assay type: cell-based, Murine
ASSAY CONDITIONS: Mus musculus, 72 h, read-out: IC50(μM) ± SD, tumor cell proliferation

MOLECULE SMILES	IC50, µM
Cc1cnc(Nc2ccc(N3CCC(N(C)CCO)CC3)c(F)c2)nc1-c1cnn(C(C)C)c1	0.39

###

PROCEDURE DETAILS: PK and tissue distribution after repeated oral administration in Ba/F3-EPOR-JAK2^V617F tumor-bearing mice
Assay type: in vivo
ASSAY CONDITIONS: BALB/c nude, mouse, intestine, oral, 30 mg/kg; repeated; 0.5 h; read-out: FM concentration, Intestine

COMPOUND	concentration at 0.5 h (ng/g)
Cc1cnc(Nc2ccc(N3CCC(N(C)CCO)CC3)c(F)c2)nc1-c1cnn(C(C)C)c1 [FM]	31200

###

PROCEDURE DETAILS: PK and tissue distribution after repeated oral administration in Ba/F3-EPOR-JAK2^V617F tumor-bearing mice
Format: in vivo
ASSAY CONDITIONS: BALB/c nude, mouse, spleen, oral, 30 mg/kg; repeated; 0.5 h; read-out: FM concentration, Spleen

MOLECULE SMILES	concentration at 0.5 h, ng/g
Cc1cnc(Nc2ccc(N3CCC(N(C)CCO)CC3)c(F)c2)nc1-c1cnn(C(C)C)c1	12100
